System: 227483-062-R1-J1-PDC complex spheroids with HUVEC/MSC, viability
EXPERIMENT NOTES: Anticancer human tumor 227483-062-R1-J1-PDC patient-derived pancreatic carcinoma cell line growth inhibition [CLK]; active = viability on the fitted dose curve at most 10% of control; inactive = the rest
CONDITION DESCRIPTION: second compound 0.1 µM; first compound 0.0949 µM
Possible outcomes: active, inactive

CC(C)CC(NC(=O)C(Cc1ccccc1)NC(=O)c1cnccn1)B(O)O (stereo unspecified) + CN1CCN(c2cc(C(=O)Nc3cc4cc(-c5cnn(C)c5)ccc4cn3)ccn2)CC1 :: active
C=CC(=O)Nc1cc(Nc2nccc(-c3cn(C)c4ccccc34)n2)c(OC)cc1N(C)CCN(C)C + CNC(=O)c1ccc(Nc2nc(OC3CCCC3)c3c(-c4ccc5nc(C)oc5c4)c[nH]c3n2)c(OC)c1 :: inactive
NC(=O)C(=Cn1cnc(-c2cc(C(F)(F)F)cc(C(F)(F)F)c2)n1)c1cncnc1 + CNC(=O)c1ccc(Nc2nc(OC3CCCC3)c3c(-c4ccc5nc(C)oc5c4)c[nH]c3n2)c(OC)c1 :: inactive
NC(=O)C(=Cn1cnc(-c2cc(C(F)(F)F)cc(C(F)(F)F)c2)n1)c1cncnc1 + CN1CCN(c2cc(C(=O)Nc3cc4cc(-c5cnn(C)c5)ccc4cn3)ccn2)CC1 :: inactive
C=CC(=O)Nc1cc(Nc2nccc(-c3cn(C)c4ccccc34)n2)c(OC)cc1N(C)CCN(C)C + CN1CCN(c2cc(C(=O)Nc3cc4cc(-c5cnn(C)c5)ccc4cn3)ccn2)CC1 :: inactive
CC(C)CC(NC(=O)C(Cc1ccccc1)NC(=O)c1cnccn1)B(O)O (stereo unspecified) + CNC(=O)c1ccc(Nc2nc(OC3CCCC3)c3c(-c4ccc5nc(C)oc5c4)c[nH]c3n2)c(OC)c1 :: active

====

Reported viability, T/C values follow for various compounds
Tested on: 227483-062-R1-J1-PDC complex spheroids with HUVEC/MSC, viability
EXPERIMENT NOTES: Anticancer human tumor 227483-062-R1-J1-PDC cell line growth inhibition [CLK];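 also: spheroids exposed to compounds for seven days before readout; percent of DMSO vehicle control luminescence as 100% viability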
CONDITION DESCRIPTION: second compound 0.0316 µM; first compound 0.1 µM; active compounds read low
Excerpt: A high-throughput screen of multi-cell type tumor spheroids was designed to identify active combinations of […] and targeted small molecules. Complex spheroids include a stromal component modeled by human endothelial cells (HUVEC) and fibroblasts modeled by human mesenchymal stem cells (MSCs). […] Compounds. […] If the clinical Cmax for an agent had not been determined, the highest concentration tested was 10 microM. […]
METRIC: viability, T/C

C#Cc1c(F)ccc2cc(O)cc(-c3ncc4c(N5CC6CCC(C5)N6)nc(OCC56CCCN5CC(F)C6)nc4c3F)c12 (stereo not drawn) + CNC(=O)c1ccc(Nc2nc(OC3CCCC3)c3c(-c4ccc5nc(C)oc5c4)c[nH]c3n2)c(OC)c1 :: 110%
CC(Nc1ccc2c(c1)OCCn1cc(N3C(=O)OCC3C(F)F)nc1-2)C(N)=O (stereo not drawn) + CN1CCN(c2cc(C(=O)Nc3cc4cc(-c5cnn(C)c5)ccc4cn3)ccn2)CC1 :: 81.5%
COc1c(OCCCN2CCOCC2)ccc2c3n(c(=NC(=O)c4cnc(N)nc4)nc12)CCN3 + CNC(=O)c1ccc(Nc2nc(OC3CCCC3)c3c(-c4ccc5nc(C)oc5c4)c[nH]c3n2)c(OC)c1 :: 69%

====

Tested on: 227483-062-R1-J1-PDC complex spheroids with HUVEC/MSC, viability
EXPERIMENT NOTES: Anticancer human tumor 227483-062-R1-J1-PDC cell line growth inhibition [CLK];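 also: spheroids exposed to compounds for seven days before readout; percent of DMSO vehicle control luminescence as 100% viability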
CONDITION DESCRIPTION: second compound 3.16 µM; first compound 1 µM; active compounds read low
From the text: A high-throughput screen of multi-cell type tumor spheroids was designed to identify active combinations of […] and targeted small molecules. Complex spheroids include a stromal component modeled by human endothelial cells (HUVEC) and fibroblasts modeled by human mesenchymal stem cells (MSCs). […] Compounds. […] If the clinical Cmax for an agent had not been determined, the highest concentration tested was 10 microM. […]
Listed compounds paired with reported viability, T/C
METRIC: viability, T/C (%)

COc1c(OCCCN2CCOCC2)ccc2c3n(c(=NC(=O)c4cnc(N)nc4)nc12)CCN3 + CN1CCN(c2cc(C(=O)Nc3cc4cc(-c5cnn(C)c5)ccc4cn3)ccn2)CC1 :: 1.94
CC(Nc1ccc2c(c1)OCCn1cc(N3C(=O)OCC3C(F)F)nc1-2)C(N)=O (stereo unspecified) + CNC(=O)c1ccc(Nc2nc(OC3CCCC3)c3c(-c4ccc5nc(C)oc5c4)c[nH]c3n2)c(OC)c1 :: 33.4
Nc1ccccc1NC(=O)c1ccc(CNC(=O)OCc2cccnc2)cc1 + CNC(=O)c1ccc(Nc2nc(OC3CCCC3)c3c(-c4ccc5nc(C)oc5c4)c[nH]c3n2)c(OC)c1 :: 30.1
C=C(F)C(=O)N1CCN(c2nc(OCC3CCCN3C)nc3c2CCN(c2cccc4cccc(Cl)c24)C3)CC1CC#N (stereo unspecified) + CNC(=O)c1ccc(Nc2nc(OC3CCCC3)c3c(-c4ccc5nc(C)oc5c4)c[nH]c3n2)c(OC)c1 :: 41.6
CC(CO)NC(=O)c1cc(-c2ccc(Cl)cc2)nn(-c2cnn(C)c2)c1=O (stereo unspecified) + CN1CCN(c2cc(C(=O)Nc3cc4cc(-c5cnn(C)c5)ccc4cn3)ccn2)CC1 :: 2.83
COc1cccc2c1C(=O)c1c(O)c3c(c(O)c1C2=O)CC(O)(C(=O)CO)CC3OC1CC(N)C(O)C(C)O1 (stereo unspecified) + CN1CCN(c2cc(C(=O)Nc3cc4cc(-c5cnn(C)c5)ccc4cn3)ccn2)CC1 :: 3.22
CCCS(=O)(=O)Nc1ccc(F)c(C(=O)c2c[nH]c3ncc(-c4ccc(Cl)cc4)cc23)c1F + CNC(=O)c1ccc(Nc2nc(OC3CCCC3)c3c(-c4ccc5nc(C)oc5c4)c[nH]c3n2)c(OC)c1 :: 36.1
Nc1ccn(C2OC(CO)C(O)C2(F)F)c(=O)n1 (stereo unspecified) + CN1CCN(c2cc(C(=O)Nc3cc4cc(-c5cnn(C)c5)ccc4cn3)ccn2)CC1 :: 1.88
O=C(c1cc(Cc2n[nH]c(=O)c3ccccc23)ccc1F)N1CCN(C(=O)C2CC2)CC1 + CNC(=O)c1ccc(Nc2nc(OC3CCCC3)c3c(-c4ccc5nc(C)oc5c4)c[nH]c3n2)c(OC)c1 :: 48.9
COc1cccc2c1C(=O)c1c(O)c3c(c(O)c1C2=O)CC(O)(C(=O)CO)CC3OC1CC(N)C(O)C(C)O1 (stereo unspecified) + CNC(=O)c1ccc(Nc2nc(OC3CCCC3)c3c(-c4ccc5nc(C)oc5c4)c[nH]c3n2)c(OC)c1 :: 2.71
O=C(c1cc(Cc2n[nH]c(=O)c3ccccc23)ccc1F)N1CCN(C(=O)C2CC2)CC1 + CN1CCN(c2cc(C(=O)Nc3cc4cc(-c5cnn(C)c5)ccc4cn3)ccn2)CC1 :: 2.51

====

System: 227483-062-R1-J1-PDC complex spheroids with HUVEC/MSC, viability
EXPERIMENT NOTES: Anticancer human tumor 227483-062-R1-J1-PDC cell line growth inhibition [CLK]; active means viability on the fitted dose curve at most 10% of control; inactive means the rest;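 also: spheroids exposed to compounds for seven days before readout; percent of DMSO vehicle control luminescence as 100% viability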
CONDITION DESCRIPTION: second compound 3.16 µM; first compound 0.1 µM
Outcomes: Yes for active, No for inactive

CCN1CCN(Cc2ccc(Nc3ncc(F)c(-c4cc(F)c5nc(C)n(C(C)C)c5c4)n3)nc2)CC1 + CN1CCN(c2cc(C(=O)Nc3cc4cc(-c5cnn(C)c5)ccc4cn3)ccn2)CC1 :: Yes
C=C(F)C(=O)N1CCN(c2nc(OCC3CCCN3C)nc3c2CCN(c2cccc4cccc(Cl)c24)C3)CC1CC#N (centres undefined) + CNC(=O)c1ccc(Nc2nc(OC3CCCC3)c3c(-c4ccc5nc(C)oc5c4)c[nH]c3n2)c(OC)c1 :: No
CCN1CCN(Cc2ccc(Nc3ncc(F)c(-c4cc(F)c5nc(C)n(C(C)C)c5c4)n3)nc2)CC1 + CNC(=O)c1ccc(Nc2nc(OC3CCCC3)c3c(-c4ccc5nc(C)oc5c4)c[nH]c3n2)c(OC)c1 :: No
CC(=O)O[C@H]1C(=O)[C@@]2(C)[C@H]([C@H](OC(=O)c3ccccc3)[C@]3(O)C[C@H](OC(=O)[C@H](O)[C@@H](NC(=O)c4ccccc4)c4ccccc4)C(C)=C1C3(C)C)[C@]1(OC(C)=O)CO[C@@H]1C[C@@H]2O + CNC(=O)c1ccc(Nc2nc(OC3CCCC3)c3c(-c4ccc5nc(C)oc5c4)c[nH]c3n2)c(OC)c1 :: No

====

Reported viability, T/C values are given for each entry in this list.
Tested on: 227483-062-R1-J1-PDC complex spheroids with HUVEC/MSC, viability
EXPERIMENT NOTES: Anticancer human tumor 227483-062-R1-J1-PDC cell line growth inhibition [CLK];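 also: spheroids exposed to compounds for seven days before readout; percent of DMSO vehicle control luminescence as 100% viability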
CONDITION DESCRIPTION: second compound 3.16 µM; first compound 0.1 µM; active compounds read low
METRIC: viability, T/C (%)

Nc1ccccc1NC(=O)c1ccc(CNC(=O)OCc2cccnc2)cc1 + CNC(=O)c1ccc(Nc2nc(OC3CCCC3)c3c(-c4ccc5nc(C)oc5c4)c[nH]c3n2)c(OC)c1 :: 44.2
CCCS(=O)(=O)Nc1ccc(F)c(C(=O)c2c[nH]c3ncc(-c4ccc(Cl)cc4)cc23)c1F + CNC(=O)c1ccc(Nc2nc(OC3CCCC3)c3c(-c4ccc5nc(C)oc5c4)c[nH]c3n2)c(OC)c1 :: 52.6
O=c1[nH]cc(F)c(=O)[nH]1 + CN1CCN(c2cc(C(=O)Nc3cc4cc(-c5cnn(C)c5)ccc4cn3)ccn2)CC1 :: 2.74
COc1ccc([C@@H](O)c2cc(-c3ncnc4cc(N5CCOCC5)ccc34)c(F)cc2Cl)nn1 + CN1CCN(c2cc(C(=O)Nc3cc4cc(-c5cnn(C)c5)ccc4cn3)ccn2)CC1 :: 3.34
COc1cccc2c1C(=O)c1c(O)c3c(c(O)c1C2=O)CC(O)(C(=O)CO)CC3OC1CC(N)C(O)C(C)O1 (stereo not given) + CNC(=O)c1ccc(Nc2nc(OC3CCCC3)c3c(-c4ccc5nc(C)oc5c4)c[nH]c3n2)c(OC)c1 :: 35.9
C#Cc1c(F)ccc2cc(O)cc(-c3ncc4c(N5CC6CCC(C5)N6)nc(OCC56CCCN5CC(F)C6)nc4c3F)c12 (stereo not given) + CN1CCN(c2cc(C(=O)Nc3cc4cc(-c5cnn(C)c5)ccc4cn3)ccn2)CC1 :: 4.44
CCc1c2c(nc3ccc(O)cc13)-c1cc3c(c(=O)n1C2)COC(=O)[C@]3(O)CC + CNC(=O)c1ccc(Nc2nc(OC3CCCC3)c3c(-c4ccc5nc(C)oc5c4)c[nH]c3n2)c(OC)c1 :: 12.6
C#Cc1c(F)ccc2cc(O)cc(-c3ncc4c(N5CC6CCC(C5)N6)nc(OCC56CCCN5CC(F)C6)nc4c3F)c12 (stereo not given) + CNC(=O)c1ccc(Nc2nc(OC3CCCC3)c3c(-c4ccc5nc(C)oc5c4)c[nH]c3n2)c(OC)c1 :: 57.4
COc1ccc([C@@H](O)c2cc(-c3ncnc4cc(N5CCOCC5)ccc34)c(F)cc2Cl)nn1 + CNC(=O)c1ccc(Nc2nc(OC3CCCC3)c3c(-c4ccc5nc(C)oc5c4)c[nH]c3n2)c(OC)c1 :: 41.5
C=CC(=O)N1CCN(c2nc(=O)n(-c3c(C)ccnc3C(C)C)c3nc(-c4c(O)cccc4F)c(F)cc23)C(C)C1 (stereo not given) + CN1CCN(c2cc(C(=O)Nc3cc4cc(-c5cnn(C)c5)ccc4cn3)ccn2)CC1 :: 3.65
COc1c(OCCCN2CCOCC2)ccc2c3n(c(=NC(=O)c4cnc(N)nc4)nc12)CCN3 + CNC(=O)c1ccc(Nc2nc(OC3CCCC3)c3c(-c4ccc5nc(C)oc5c4)c[nH]c3n2)c(OC)c1 :: 22.3
Cn1ncnc1[C@H]1c2n[nH]c(=O)c3cc(F)cc(c23)N[C@@H]1c1ccc(F)cc1 + CN1CCN(c2cc(C(=O)Nc3cc4cc(-c5cnn(C)c5)ccc4cn3)ccn2)CC1 :: 1.89
C=CC(=O)N1CCN(c2nc(=O)n(-c3c(C)ccnc3C(C)C)c3nc(-c4c(O)cccc4F)c(F)cc23)C(C)C1 (stereo not given) + CNC(=O)c1ccc(Nc2nc(OC3CCCC3)c3c(-c4ccc5nc(C)oc5c4)c[nH]c3n2)c(OC)c1 :: 63.2
CC(CO)NC(=O)c1cc(-c2ccc(Cl)cc2)nn(-c2cnn(C)c2)c1=O (stereo not given) + CN1CCN(c2cc(C(=O)Nc3cc4cc(-c5cnn(C)c5)ccc4cn3)ccn2)CC1 :: 4.28
Nc1ccn(C2OC(CO)C(O)C2(F)F)c(=O)n1 (stereo not given) + CN1CCN(c2cc(C(=O)Nc3cc4cc(-c5cnn(C)c5)ccc4cn3)ccn2)CC1 :: 2.2
CC(=O)O[C@H]1C(=O)[C@@]2(C)[C@H]([C@H](OC(=O)c3ccccc3)[C@]3(O)C[C@H](OC(=O)[C@H](O)[C@@H](NC(=O)c4ccccc4)c4ccccc4)C(C)=C1C3(C)C)[C@]1(OC(C)=O)CO[C@@H]1C[C@@H]2O + CN1CCN(c2cc(C(=O)Nc3cc4cc(-c5cnn(C)c5)ccc4cn3)ccn2)CC1 :: 3.02
CC1COCCN1c1cc(C2(S(C)(=N)=O)CC2)nc(-c2ccnc3[nH]ccc23)n1 (stereo not given) + CNC(=O)c1ccc(Nc2nc(OC3CCCC3)c3c(-c4ccc5nc(C)oc5c4)c[nH]c3n2)c(OC)c1 :: 52.9
O=C(c1cc(Cc2n[nH]c(=O)c3ccccc23)ccc1F)N1CCN(C(=O)C2CC2)CC1 + CNC(=O)c1ccc(Nc2nc(OC3CCCC3)c3c(-c4ccc5nc(C)oc5c4)c[nH]c3n2)c(OC)c1 :: 54.5
C=C(F)C(=O)N1CCN(c2nc(OCC3CCCN3C)nc3c2CCN(c2cccc4cccc(Cl)c24)C3)CC1CC#N (stereo not given) + CN1CCN(c2cc(C(=O)Nc3cc4cc(-c5cnn(C)c5)ccc4cn3)ccn2)CC1 :: 2.98
CC(CO)NC(=O)c1cc(-c2ccc(Cl)cc2)nn(-c2cnn(C)c2)c1=O (stereo not given) + CNC(=O)c1ccc(Nc2nc(OC3CCCC3)c3c(-c4ccc5nc(C)oc5c4)c[nH]c3n2)c(OC)c1 :: 50.3
